- assayed system: CBP20/2xCBP80 (CBC) (Homo sapiens, UniProt P52298)
- Construct: CBP20-CBP80 heterodimer, CBP80 added 2x (apparently molar excess)
- Sequence (P52298 2-156): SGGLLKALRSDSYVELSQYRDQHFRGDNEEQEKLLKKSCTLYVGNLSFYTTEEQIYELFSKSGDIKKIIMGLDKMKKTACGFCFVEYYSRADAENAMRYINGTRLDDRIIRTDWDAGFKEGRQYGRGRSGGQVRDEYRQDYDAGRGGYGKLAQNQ
- Sequence (Q09161 20-790 partner limits assumed): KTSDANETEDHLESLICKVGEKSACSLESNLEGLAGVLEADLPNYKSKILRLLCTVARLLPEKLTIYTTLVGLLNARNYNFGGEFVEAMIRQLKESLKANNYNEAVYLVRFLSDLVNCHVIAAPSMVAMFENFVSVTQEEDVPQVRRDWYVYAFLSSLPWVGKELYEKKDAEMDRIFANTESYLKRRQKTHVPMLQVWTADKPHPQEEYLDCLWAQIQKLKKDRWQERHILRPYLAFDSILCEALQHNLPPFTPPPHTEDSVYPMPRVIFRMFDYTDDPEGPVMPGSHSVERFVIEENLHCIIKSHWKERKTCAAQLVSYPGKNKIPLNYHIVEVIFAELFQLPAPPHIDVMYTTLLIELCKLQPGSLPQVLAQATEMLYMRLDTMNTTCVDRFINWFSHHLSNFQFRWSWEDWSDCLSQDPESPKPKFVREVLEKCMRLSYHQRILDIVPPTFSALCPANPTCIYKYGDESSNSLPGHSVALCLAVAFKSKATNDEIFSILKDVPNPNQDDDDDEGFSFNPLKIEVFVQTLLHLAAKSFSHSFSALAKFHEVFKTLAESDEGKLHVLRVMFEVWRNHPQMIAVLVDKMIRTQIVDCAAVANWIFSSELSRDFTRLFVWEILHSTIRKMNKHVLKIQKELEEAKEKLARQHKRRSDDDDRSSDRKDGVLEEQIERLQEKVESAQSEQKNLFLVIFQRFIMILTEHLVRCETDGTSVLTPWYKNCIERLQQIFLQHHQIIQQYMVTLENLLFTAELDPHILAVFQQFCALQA
- experiment notes: isothermal titration calorimetry
- condition details: 250 mM NaCl, 20 mM HEPES, 2 mM TCEP, pH 7.8, 25 °C; CBP80 present (2x)
- Description: isothermal titration calorimetry on CBP20/2xCBP80 (CBC)
property: pKd
In plain terms, pKd is the concentration in mol/L turned into minus its base-10 logarithm.

Ask: Return pKd measured with CBP20/2xCBP80 (CBC) (Homo sapiens, UniProt P52298) given this molecule: C[n+]1cn([C@@H]2O[C@H](COP(=O)(O)OP(=O)(O)OP(=O)(O)O)[C@@H](O)[C@H]2O)c2nc(N)[nH]c(=O)c21 [m^7GTP]
Result: 6.43
